# experimentNotes: folding stability dG unfold (combined trypsin and chymotrypsin); higher = more stable
property: folding stability dG unfold (kJ/mol)
One number for each entry, in kJ/mol.

See these solved cases before continuing.
sequenceInput	property	recordedValue
SASSSFTLPGLKLEVETQKVSTFPTPDGTPVVLYETTIHFLEVPESLRAEGKPLSLESSVKKLKVVPLPSAG [r14_942_JUSTAS]	folding stability dG unfold	1.64
SAGGMSITITTNAPKEVLLRFIKDLAEEIGVEVDVEVTVEPLEDGPIVTAHVHIDPKEPEVPLEELFSAGGS [r16_262_TrMRF]	folding stability dG unfold	2.69
SAGGSAGGKKVIVKIKIKVKDKETGEEKEIEITLEFETEEEAKAAIEALKALPPGVEIKIELLPSAGGSAGG [r6_999_TrROS_Hall]	folding stability dG unfold	17.5

Answer for every listed entry: what is its folding stability dG unfold? The entries follow.
1. SAGGSAGGMPPVSLPETPVTITDPATGKPRLVTVLAAAPDGTLTVRFPDGSEVTVAGEPLLELESAGGSAGG [r6_435_JUSTAS]
2. SAGGSAGGSAGGEPIYIRINNYYIVINLDDGNIRVYPPMKGKKKKVPANDIKPIDPGDISAGGSAGGSAGGS [r10_709_TrROS]

1: 3.67; 2: 4.47

Could I get folding stability dG unfold for every one of these entries?
1. SAGGSAGGSKIPPGEPVTLPIFFIIWDPENGRPYAMRMEITFDAPDGNITKMNEEVIPPGQPFSAGGSAGGS [r12_868_TrROS]
2. SAGGSASVKVEITEIKSSNPESSSNKIDIPVKVYDPETGKEVLSVEEIAKKIEEENPGKPVGYVPESAGGSA [r2_27_JUSTAS]
3. SAGGSMPYKTLEESESEIYDPSNGNVKYKVKTETILLPDGTILVKETIYDPETGTTETKTYTIPKGSAGGSA [r2_13_JUSTAS]
4. SAGGMLGFRAETDLFVEPIPPGAEVEPLRIGDRLLLIVRHPDGSYTINLFTPVRPLPVPPAFSTANAASAGG [r13_804_TrMRF]
5. SAGGSAGGSAGSPIDTLVEEKTFTLPNGEKVIEATLKRPPGEPVHVVTIETKDSVIVELESAGGSAGGSAGG [r17_316_JUSTAS]
6. SAGGSAGGSAMKTYTLEQIEELLKSLPEEEIEEVKIEEKEGKKVIYVKTKDGREIEIVVEPSAGGSAGGSAG [r3_291_TrROS_Hall]

6.46
1.17
7.5
7.05
1.93
12.5

Record summary for SAGGSAGGSPPMKTYEHWIRFDSPEQAVEEVANHIQDHFGLEIKSVEIEYDPENGWVRVKIVISAGGSAGGS [r12_265_TrROS] : reported folding stability dG unfold = 13

* * *

Provide the recorded folding stability dG unfold for the entries that follow.
# experimentNotes: folding stability dG unfold (combined trypsin and chymotrypsin); higher = more stable
Give bare numbers, in kcal/mol.

// known answers, use as guide
sequenceInput	property	recordedValue
SAGGLDPDGKIRWQPITITIEIPIPPGDEELANKIADWLRDLGIEVEIKRNPNGYIQITVEFWVLVIDSAGG [r13_702_TrROS]	folding stability dG unfold	4.89
SAGGSAGGSAGIKIYAPGFPGMPVEIERDPDEPNVIKIKIKGPDNGEPQERTFPADDLEISAGGSAGGSAGG [r17_341_TrROS]	folding stability dG unfold	-0.169

Batch request: folding stability dG unfold for each of the following sequences.
1. SAGGSAMLENLPELDIKIKVEYKAEILPDGSLLIPAKIELEIGDKKFEFEAKILINPNGEITIEIGSAGGSA [r15_891_TrMRF]
2. SPGWYKVDIEIPMKEIQEEFGDPDKPITADRIKERVKKIAETIGFEVRDVEIEMDPNGWVRVTVTIPVKNSA [r9_52_TrROS]
3. SEVVDTFSPPVTGSGEPRDFEIRLIKDENGNPVSVTMFDPVTGVEYPPDVSLEDLGVPPPVVEAFEAARRSS [r1_354_JUSTAS]
4. SAGGMYILELTFTTPTSTTPRTVEVPPGNYEEAAKALREELAAEAGAADLEVTFTVYKVAPDGTLVEESAGG [r13_877_JUSTAS]
5. SAGGSAGGSAKPNWVIIEMTIQIPEGDPEEIKEIMEPFGWEITGVDNNYIKVSILMPPGAKISAGGSAGGSA [r18_168_TrROS]

1. 2.96
2. 3.64
3. -0.0908
4. 2
5. 1.26

* * *

# experimentNotes: folding stability dG unfold from chymotrypsin proteolysis; higher = more stable
Consider the following sequences; for each one, report its folding stability dG unfold.
Please append the unit to your numeric answer.

sequenceInput	folding stability dG unfold
SAGGMKVEKNTIYIEVEKDMSAEEVAKKIAEELKKKGLKVEIKVEKKEDGTKVIRIKVDGKEIEIYASAGGS [r16_771_TrROS_Hall]	4.72 kJ/mol
SAGGSAGGSKYYRVRFKEEIEITLENGEKLKIKKGDVIVVPSKEDLDRLKALFPNLEVEVEPVSAGGSAGGS [r12_987_TrROS_Hall]	16.4 kJ/mol
SAGSLKPGDLLYVRIYVYNPDGELLGEIDELVETEEEAERRLRELAREIEERLGRNVRVLAEIYRYPRLSAG [r5_232_TrMRF]	19.1 kJ/mol

For the next question, use this sequence.
Given item SAGGSAGGSAGWFTIMFKADSPEKVEEIVDELAQENGLEVEIERNPGEPGYIMITIKPPPSAGGSAGGSAGG [r11_797_TrROS] , the value recorded as its folding stability dG unfold is 4.07 kJ/mol

* * *

Assignment: determine reported folding stability dG unfold for the given sequences.
# experimentNotes: folding stability dG unfold from chymotrypsin proteolysis; higher = more stable

sequenceInput	folding stability dG unfold
SAGGKVYRLPDGTRVLEVEVDGELYRLVVRRPDGEELVLEFESREEALEAAKALAEAGWEIVAVERVPSAGG [r13_727_TrROS_Hall]	0.807 kcal/mol
SAGGSAGGGPYKTSYAIVDGSVVASTEGDPETGVVTSTFTFDGSDVEYTTPATPGEAVTRTVSLSAGGSAGG [r6_972_JUSTAS]	0.797 kcal/mol
SAGGMKPGETWRIRTPGKTITIEVKDGKITVTVEENGKKKTIVVEAETEEEALEALRSIPGLEIEKVSAGGS [r16_583_TrROS_Hall]	1.32 kcal/mol
SAPPLPPETITLTLTIDGYEITVTLTRLPDGTVKLTVTVTLPDGTTVTITMYFDAKTNKWYITKIEITPPSA [r9_795_TrROS_Hall]	5.19 kcal/mol
SAGGKYKIVEITIKVEPGQSPEEIAAEIAKKLAPPGEKVKVKVEKKDGYLRIYIINEETGEVVEEFELSAGG [r13_724_TrROS_Hall]	1.91 kcal/mol
SAGTIHFMVPRDEMSDEEAEDIVNTIAKHFPGFKIDRIYWHKQPDPDGDPRRMYHVEIKIKIPLPPGMKSAG [r5_835_TrROS]	2.41 kcal/mol
SAGGKIKIKSVEVQPNPDGMRKVTLEFQDGGKEHKVEIYVHPGGIMISIPNGKTRTIPWDDLDDIKLSAGGS [r16_593_TrROS]	1.22 kcal/mol
SAGGSAGGMVKLKVYKIPESVPPELRALLEALVEGEGEVEVEPEEAEALLKLPGIEELEVEELESAGGSAGG [r6_381_TrMRF]	1.84 kcal/mol

Dear reader, for each entry below, please note its folding stability dG unfold.
1. SAIPINLPPGDKVKITFRNPDGSRMEIEFDPENGKWKVKMRPNDGKKQEQTIPAGNLDDLPPGVYSIEPVSA [r9_1110_TrROS]
2. SAGGSAGGSDFPVKILEVEFHPNGSITIVIQAPDGWYIKATFHVPPNGNVKMSIELIPDPDAISAGGSAGGS [r20_23_TrROS]
3. SMKITTDPVNKTISATFPPGTDPLAETQKIVDEVKKKENSGDITITFSTGNTTINYTLGTNTVTTTPAGTSA [r9_224_JUSTAS]
4. SAGGSAKIEITIFIPGMSEEEVKKLAEELAEELRKKGLSDEEIKEIKIKVYKVPVYKTEDGKLVKVSAGGSA [r15_684_TrROS_Hall]
5. SAGSPPDDVREEETEEVVPSPDGSLTVTRTPVVRRPGEEEEVRTETTVYFPPSDETLTSESLTRFPGASAGG [r19_387_JUSTAS]
6. SMQINVERNPENGTVIIHIPMEDMPPENIREILKDLPPNNKRVTIHMHDPPYMRWLKELAKEKGFPIKITSA [r9_919_TrROS]

1.78 kcal/mol
4 kcal/mol
-0.35 kcal/mol
1.82 kcal/mol
0.895 kcal/mol
0.453 kcal/mol

* * *

# experimentNotes: folding stability dG unfold from trypsin proteolysis; higher = more stable
property: folding stability dG unfold (kcal/mol)
Answers are plain numbers, in kcal/mol.

sequenceInput	folding stability dG unfold, kcal/mol
SAGGSAGGSEVKTITLTIKNKETNKEIKIEVQVFKNEDGELVFIAKAEITYNGKKYTFTVLLPSAGGSAGGS [r12_619_TrROS_Hall]	3.82
SAGGMVIEKDGDYEYVLLLVDSPEGFPVEVAKELLKKEFGLKEIKVLSAKPLPNGIRLVLVKNKFEKSAGGS [r16_234_TrMRF]	0.875

Batch: folding stability dG unfold for all items listed.
1. SAGGSAGGGKVKVELEPLEDDSYRLRITVELPDGSKIEKPVILPSNVPPELSAEKVAEEILKKESAGGSAGG [r6_895_TrMRF]
2. SAGGTVTLTLELTVKVKRKDGKTETKKVTLTITVEVKEGETVYTPDGKKIKPGKSAEELAKELLKKLSAGGS [r16_440_TrROS_Hall]
3. SAGGSMIPLDNIDTIEIYENPKEGKYEAKIYFPSNGKVYVFPEGLLPEIIESTPKIKEIKVIPVPESAGGSA [r2_159_TrMRF]

1. 0.378
2. 1.17
3. -1.19

// batch mode: one folding stability dG unfold value per listed entry
1. SAGGSAGGSAGKTYTFRVRIVDEETGEEKEIEVTAKSEEEAKKAAEELKKKYPNLKVELESAGGSAGGSAGG [r11_233_TrROS_Hall]
2. SAGGEIKIKKSKDGKTLYIEIKIKAGEKVKLKLTITLPNGKKAEITSVEIIEKNGELYIKVEIKIKDSAGGS [r16_499_TrROS_Hall]

1. 2.98
2. 3.92
